assay-system: HA of influenza B virus B/Malaysia/2506/2004 (live virus) (influenza B virus B/Malaysia/2506/2004)
experiment: cell-based or functional assay
readout-kind: VNA titers in µg/ml (*assay was done with 25 TCIDs) (µg/mL)
The response must be a number in µg/mL with no trailing unit.

INSERT INTO measurements (binder, recorded_result) VALUES
  ('CR11039 (antibody, V domains shown) VH: EVQLVQSGAEVKKPGESVKISCKTSGYAFTGYGISWVRQAPGQGLEWMGWINTYKFNTNYAQNLQGRVTMTIDTSTSAAYMELRSLRYEDTAVYFCARDWAGPFGNAFDVWGQGTMVTVSS VL: IQMTQSPSSLSASIGDRVAITCQASQDISDYLNWYQQQPGKAPKLLLYGASNLETGVPSRFSGSGSGTDFTFTISSLQPEDIATYYCQQYGNLPPTFGGGTKLEIK', 0.06);

Query binder follows.
Entry CR11036 (antibody, V domains shown) VH: EVQLVQSGAEVKKPGASVTVSCKASGYAFTSYYLHWVRQAPGQGLEWMGIMNLHGGSTTYAQKFQGRVTMTRDTSTRTVYMELSGLRSEDSAVYYCARESPDSSGYPGYYGMDVWGQGTTVTVSS VL: EIVLTQSPGTLSLSPGERATLSCRASQSVSSDFFAWYQQKRGQTPTLLIYGTSTRATGIPDRFSGSGSGTDFTLSVARLEPEDFAVYYCQQYGSSTWTFGQGTKVEIK : reported VNA titers in µg/ml (*assay was done with 25 TCIDs) = ?
0.22

The reported measurements were obtained from patent US20160002318A1.
